TEST_SYSTEM: UniProt P01116
Sequence (P01116 1-188 isoform P01116-2): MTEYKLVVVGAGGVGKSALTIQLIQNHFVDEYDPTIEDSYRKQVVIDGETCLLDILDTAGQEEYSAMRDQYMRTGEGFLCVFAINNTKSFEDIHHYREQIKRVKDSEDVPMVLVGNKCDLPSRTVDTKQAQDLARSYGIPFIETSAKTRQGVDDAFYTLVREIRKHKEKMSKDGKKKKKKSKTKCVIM
TEST_SUMMARY: K-Ras-wildtype activation by SOS1 (wild-type KRAS activation by SOS1cat assay, HTRF)
Assay type: biochemical
TEST_PARAMETERS: mean, SOS1cat mediated loading of wild-type GST-KRAS-GDP with fluorescent GTP analogue, read-out: K-Ras-wildtype activation by SOS1 IC50 - [mol/l] (mean)
MEASUREMENT_TYPE: pIC50
Numbers only, as −log10 of the molar value.

Below, each entry is followed by its recorded pIC50 result.
# TEST_SMILES, TEST_SYSTEM, pIC50
records = [
    ("C#Cc1cccc2cc(O)cc(Oc3nc4c(N5CC6CCC(C5)N6)nc(OCC56CCCN5CCC6)nc4s3)c12", "UniProt P01116", 6.90),
    ("Oc1cc(Nc2nc3c(N4CC5COCC(C4)N5)nc(OC[C@@]45CCCN4C[C@H](F)C5)nc3s2)c2ccccc2c1", "UniProt P01116", 5.12),
]

Switching to the query record.
Could you share which pIC50 value was measured for "Oc1cc(Oc2nc3c(N4CC5CCC(C4)N5)nc(OCC45CCCN4CCC5)nc3s2)c2c(Cl)cccc2c1" ?
5.97
